Test system: TNF-α synthesis in J744A.1 macrophages
Test: inhibition of TNF-α synthesis in LPS-activated macrophages (ELISA)
Format: cell-based
Details: Macrophage; 10 μM compound, 100 ng/ml LPS, 6 hours; read-out: Inhibition (%) of TNF-α synthesis
metric name: inhibition at 10 µM (%)
Response body: numeric value in %, unit text excluded.

Measured inhibition at 10 µM of "CN1CCN(Cc2ccc(-c3cc4nccc(Nc5cccc(O)c5)c4s3)cc2)CC1" : 64

In plain terms, "Oc1cccc(Nc2ncnc3cc(-c4ccc(CN5CCCCC5)cc4)sc23)c1" has a documented inhibition at 10 µM of 65

# inhibition at 10 µM of "Oc1cccc(Nc2ccnc3cc(-c4ccc(CN5CCOCC5)cc4)sc23)c1" = 62

###

Target: UniProt P12931
Sequence (P12931 whole entry, looked up): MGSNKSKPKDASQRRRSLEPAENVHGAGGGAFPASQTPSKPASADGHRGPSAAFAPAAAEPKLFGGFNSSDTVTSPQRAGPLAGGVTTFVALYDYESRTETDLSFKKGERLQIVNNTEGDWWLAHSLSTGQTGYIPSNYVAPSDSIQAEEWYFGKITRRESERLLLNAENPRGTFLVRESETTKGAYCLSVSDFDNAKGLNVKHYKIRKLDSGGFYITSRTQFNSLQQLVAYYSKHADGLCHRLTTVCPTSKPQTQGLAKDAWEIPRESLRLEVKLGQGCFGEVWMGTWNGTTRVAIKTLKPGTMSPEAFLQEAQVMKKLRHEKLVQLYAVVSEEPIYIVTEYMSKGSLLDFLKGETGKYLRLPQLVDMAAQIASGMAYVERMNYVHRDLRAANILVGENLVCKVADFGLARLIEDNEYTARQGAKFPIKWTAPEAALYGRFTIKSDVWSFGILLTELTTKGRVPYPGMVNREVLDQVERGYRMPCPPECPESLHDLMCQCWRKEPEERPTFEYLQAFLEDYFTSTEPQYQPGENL
Test: in vitro c-Src tyrosine kinase inhibition (32P-ATP, poly(D4Y)n substrate)
Format: biochemical
Conditions: 1 uM compound; read-out: % inhibition against c-Src
metric name: inhibition at 1 µM

According to the records, this molecule "CCNCc1ccc(-c2cc3ncnc(Nc4cccc(O)c4)c3s2)s1" displays inhibition at 1 µM of > 60%

The reported value for "O=C(Cc1ccc(-c2cc3ncnc(Nc4cccc(O)c4)c3s2)cc1)N1CCCC1" in terms of inhibition at 1 µM is > 40%

Value of measured inhibition at 1 µM for the entry "Oc1cccc(Nc2ncnc3cc(-c4ccco4)sc23)c1" : > 60%

The molecule OCC1CCCN1Cc1ccc(-c2cc3ncnc(Nc4cccc(O)c4)c3s2)cc1 (stereo not shown) showed inhibition at 1 µM equal to > 50%

###

Please provide measured inhibition at 1 µM for the entries that follow.
Target: DDR2 tyrosine kinase (Homo sapiens (Human), UniProt Q16832)
Sequence (Q16832 563-849): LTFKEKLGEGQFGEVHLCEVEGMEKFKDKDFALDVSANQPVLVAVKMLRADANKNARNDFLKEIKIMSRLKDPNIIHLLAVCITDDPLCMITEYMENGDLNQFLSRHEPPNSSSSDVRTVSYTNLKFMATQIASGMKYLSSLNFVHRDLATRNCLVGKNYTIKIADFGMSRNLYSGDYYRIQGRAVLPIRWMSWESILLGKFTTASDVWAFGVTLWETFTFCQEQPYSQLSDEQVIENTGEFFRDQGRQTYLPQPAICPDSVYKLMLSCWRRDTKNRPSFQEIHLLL
Experiment: in vitro DDR2 tyrosine kinase inhibition (GST-fused kinase domain)
Type: biochemical
Conditions: 1 uM compound; read-out: % inhibition against DDR2

Entry under test: Oc1cccc(Nc2ncnc3cc(-c4ccc(CN5CCNCC5)cc4)sc23)c1 [LCB 03-0033] . Its inhibition at 1 µM was > 80%

Recorded inhibition at 1 µM (compound Oc1cccc(Nc2ccnc3cc(-c4ccc(CN5CCNCC5)cc4)sc23)c1 [LCB 03-0098] ): > 80%

Lookup result for Oc1cccc(Nc2ccnc3cc(-c4cccc(CN5CCCC5)c4)sc23)c1 [LCB 03-0107] ; measured inhibition at 1 µM: > 80%

###

Would you mind telling me the reported inhibition at 1 µM of each entry?
Molecular target: Hck tyrosine kinase (Homo sapiens (Human), UniProt P08631)
Sequence (P08631 whole entry): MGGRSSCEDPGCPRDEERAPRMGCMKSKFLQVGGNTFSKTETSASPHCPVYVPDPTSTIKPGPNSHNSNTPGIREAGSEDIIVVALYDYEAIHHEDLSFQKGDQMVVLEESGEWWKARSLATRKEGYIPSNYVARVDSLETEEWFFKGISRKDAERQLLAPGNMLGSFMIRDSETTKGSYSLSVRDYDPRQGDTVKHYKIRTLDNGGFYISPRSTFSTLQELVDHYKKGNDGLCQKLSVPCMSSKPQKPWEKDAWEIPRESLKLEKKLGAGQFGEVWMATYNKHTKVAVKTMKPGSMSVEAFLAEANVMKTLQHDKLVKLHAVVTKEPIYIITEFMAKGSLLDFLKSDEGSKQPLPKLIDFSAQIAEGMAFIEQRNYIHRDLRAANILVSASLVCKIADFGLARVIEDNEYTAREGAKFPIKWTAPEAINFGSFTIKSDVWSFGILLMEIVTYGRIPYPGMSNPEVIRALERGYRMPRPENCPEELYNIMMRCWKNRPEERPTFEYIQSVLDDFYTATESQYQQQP
Test: in vitro Hck tyrosine kinase inhibition
Assay type: biochemical
Conditions: 1 uM compound; read-out: % inhibition against Hck

Data point: "CN1CCN(CCc2ccc(-c3cc4ncnc(Nc5cccc(O)c5)c4s3)cc2)CC1" ; inhibition at 1 µM = > 20%

// inhibition at 1 µM value for "Oc1cccc(Nc2ncnc3cc(-c4ccc(CN5CCNCC5)cc4)sc23)c1" : > 60%

The reported inhibition at 1 µM of the compound "COc1cccc(Nc2ncnc3cc(-c4ccc(O)cc4)sc23)c1" was > 70%

Measured inhibition at 1 µM, "Cl.Oc1cccc(Nc2ncnc3cc(-c4cccc(CN5CCCC5)c4)sc23)c1" : > 80%

So for "Oc1cccc(Nc2ncnc3cc(-c4ccc(CN5CCCCC5)o4)sc23)c1" , the logged inhibition at 1 µM turned out to be > 70%

###

So I've got a bunch of compounds here, and I need their inhibition at 1 µM values.
Biological target: DDR2 tyrosine kinase (Homo sapiens (Human), UniProt Q16832)
Assay: in vitro DDR2 tyrosine kinase inhibition (GST-fused kinase domain)
Type: biochemical
Settings: 1 uM compound; read-out: % inhibition against DDR2

For the compound "Oc1cccc(Nc2ncnc3cc(-c4ccc(CCN5CCCCC5)cc4)sc23)c1" , the measured inhibition at 1 µM on DDR2 tyrosine kinase (Homo sapiens (Human), UniProt Q16832) was > 80%

Noted inhibition at 1 µM for "CCNCc1ccc(-c2cc3ncnc(Nc4cccc(O)c4)c3s2)s1" , tested on DDR2 tyrosine kinase (Homo sapiens (Human), UniProt Q16832): > 80%

So the reported inhibition at 1 µM for "Cl.Oc1cccc(Nc2ncnc3cc(-c4cccc(CN5CCCCC5)c4)sc23)c1" , on DDR2 tyrosine kinase (Homo sapiens (Human), UniProt Q16832), turned out to be > 80%

Entry "COc1cccc(Nc2ncnc3cc(-c4ccc(O)cc4)sc23)c1" , tested on DDR2 tyrosine kinase (Homo sapiens (Human), UniProt Q16832), has a reported inhibition at 1 µM of > 20%

Form field inhibition at 1 µM for item "CC1CCN(Cc2ccc(-c3cc4ncnc(Nc5cccc(O)c5)c4s3)cc2)CC1" on DDR2 tyrosine kinase (Homo sapiens (Human), UniProt Q16832): > 80%

Result for "CN1CCN(Cc2ccc(-c3cc4ncnc(Nc5cccc(O)c5)c4s3)cc2)CC1" , tested on DDR2 tyrosine kinase (Homo sapiens (Human), UniProt Q16832), inhibition at 1 µM: > 80%

Record for "CCNCc1cccc(-c2cc3nccc(Nc4cccc(O)c4)c3s2)c1" under target or system DDR2 tyrosine kinase (Homo sapiens (Human), UniProt Q16832): inhibition at 1 µM reported as > 80%

Record "CCN(CC)Cc1ccc(-c2cc3ncnc(Nc4cccc(O)c4)c3s2)cc1" has DDR2 tyrosine kinase (Homo sapiens (Human), UniProt Q16832) inhibition at 1 µM equal to > 80%

// assay DDR2 tyrosine kinase (Homo sapiens (Human), UniProt Q16832), entry "Oc1cccc(Nc2ncnc3cc(-c4ccc(CN5CCCCC5)cc4)sc23)c1" , inhibition at 1 µM value = > 80%

Tested on DDR2 tyrosine kinase (Homo sapiens (Human), UniProt Q16832): CC(NC(=O)c1ccc(-c2cc3ncnc(Nc4cccc(O)c4)c3s2)cc1)C(=O)O (stereo not drawn) . Observed inhibition at 1 µM: > 80%

Record "Cl.Oc1cccc(Nc2ncnc3cc(-c4cccc(CN5CCOCC5)c4)sc23)c1" has DDR2 tyrosine kinase (Homo sapiens (Human), UniProt Q16832) inhibition at 1 µM equal to > 80%

// compound O=C(O)C1CCCN1Cc1ccc(-c2cc3ncnc(Nc4cccc(O)c4)c3s2)cc1 (stereo not drawn) , assay DDR2 tyrosine kinase (Homo sapiens (Human), UniProt Q16832), inhibition at 1 µM value: > 50%

Noted inhibition at 1 µM for COC[C@@H]1CCCN1C(=O)c1cc2nccc(Nc3ccc4c(c3)cc(C)n4C(=O)NC3CC3)c2s1 [Control compound 2, reference compound] , tested on DDR2 tyrosine kinase (Homo sapiens (Human), UniProt Q16832): < 20%

"Oc1cccc(Nc2ccnc3cc(-c4cccc(CN5CCCCC5)c4)sc23)c1" tested on DDR2 tyrosine kinase (Homo sapiens (Human), UniProt Q16832) gave inhibition at 1 µM: > 80%

Record "CCN(CC)Cc1cccc(-c2cc3ncnc(Nc4cccc(O)c4)c3s2)c1.Cl" / DDR2 tyrosine kinase (Homo sapiens (Human), UniProt Q16832), inhibition at 1 µM recorded as > 80%

###

Target: DDR1 tyrosine kinase (Homo sapiens (Human))
Sequence (Q08345 610-905): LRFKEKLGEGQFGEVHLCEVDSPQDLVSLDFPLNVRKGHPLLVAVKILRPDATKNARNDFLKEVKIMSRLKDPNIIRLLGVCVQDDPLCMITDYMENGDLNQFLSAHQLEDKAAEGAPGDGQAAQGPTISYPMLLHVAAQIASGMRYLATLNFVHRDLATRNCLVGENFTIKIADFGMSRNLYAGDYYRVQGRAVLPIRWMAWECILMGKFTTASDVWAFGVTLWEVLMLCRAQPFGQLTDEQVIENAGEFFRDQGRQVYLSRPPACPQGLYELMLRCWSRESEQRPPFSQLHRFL
Assay: in vitro DDR1 tyrosine kinase inhibition (GST-fused kinase domain)
Format: biochemical
Conditions: 1 uM compound; read-out: % inhibition against DDR1
metric name: inhibition at 1 µM

In plain terms, Oc1cccc(Nc2ncnc3cc(-c4ccc(CCN5CCCCC5)cc4)sc23)c1 [LCB 03-0044] has a documented inhibition at 1 µM of > 80%

Recorded inhibition at 1 µM (molecule Oc1cccc(Nc2ncnc3cc(-c4ccco4)sc23)c1 [LCB 03-0038] ): > 70%

# inhibition at 1 µM of Oc1cccc(Nc2ccnc3cc(-c4cccc(CN5CCNCC5)c4)sc23)c1 [LCB 03-0111] = > 90%

So, CCNCc1cccc(-c2cc3ncnc(Nc4cccc(O)c4)c3s2)c1.Cl [LCB 03-0065] ? Its inhibition at 1 µM was > 70%

Documented inhibition at 1 µM of Cl.Oc1cccc(Nc2ncnc3cc(-c4cccc(CN5CCOCC5)c4)sc23)c1 [LCB 03-0066] : > 80%

The value of inhibition at 1 µM measured for the molecule Oc1cccc(Nc2ncnc3cc(-c4ccc(CCN5CCCC5)cc4)sc23)c1 [LCB 03-0043] turned out to be > 80%

GET /value?item= CCNCc1csc(-c2cc3ncnc(Nc4cccc(O)c4)c3s2)c1 [LCB 03-0106] &field=inhibition at 1 µM returns > 70%

// recorded inhibition at 1 µM for Cl.Oc1cccc(Nc2ncnc3cc(-c4ccc(CN5CCC(O)C5)cc4)sc23)c1 (stereo not drawn) [LCB 03-0072] : > 80%

Form: molecule = COc1cccc(Nc2ncnc3cc(-c4ccsc4)sc23)c1 [LCB 03-0028] ; inhibition at 1 µM = > 50%

For this molecule ( Oc1cccc(Nc2ncnc3cc(-c4ccc(CN5CCNCC5)cc4)sc23)c1 [LCB 03-0033] ), measured inhibition at 1 µM is > 80%

inhibition at 1 µM measured on CO[C@@H]1C[C@@H](CO)N(C(=O)c2cc3nccc(Nc4ccc5c(c4)cc(C)n5C(=O)NC4CC4)c3s2)C1 [Control compound 3, reference compound] = < 20%

Just so you know, measured inhibition at 1 µM for O=C(c1cccc(-c2cc3ncnc(Nc4cccc(O)c4)c3s2)c1)N1CCCC1 [LCB 03-0053] came out at > 80%

get_value(item= CC(C)CNCc1cccc(-c2cc3ncnc(Nc4cccc(O)c4)c3s2)c1.Cl [LCB 03-0067] , readout=inhibition at 1 µM) returns > 80%

Field inhibition at 1 µM (entry Oc1cccc(Nc2ncnc3cc(-c4ccc(CN5CCCC5)s4)sc23)c1 [LCB 03-0085] ) reads > 80%

CN1CCN(Cc2csc(-c3cc4ncnc(Nc5cccc(O)c5)c4s3)c2)CC1 [LCB 03-0102] yielded inhibition at 1 µM of > 70%

The recorded inhibition at 1 µM for Oc1cccc(Nc2ncnc3cc(-c4ccc(Cl)cc4)sc23)c1 [LCB 03-0019] is > 70%

The value of inhibition at 1 µM measured for the molecule CCN(CC)C(=O)Cc1ccc(-c2cc3ncnc(Nc4cccc(O)c4)c3s2)cc1 [LCB 03-0050] turned out to be > 80%

Recorded inhibition at 1 µM (molecule Oc1cccc(Nc2ncnc3cc(-c4ccc(CN5CCNCC5)s4)sc23)c1 [LCB 03-0094] ): > 80%

Entry under test: COc1cccc(Nc2ncnc3cc(-c4ccc(OCCN5CCOCC5)cc4)sc23)c1 [LCB 03-0018] . Its inhibition at 1 µM was > 70%

The molecule O=C(O)c1cccc(-c2cc3ncnc(Nc4cccc(O)c4)c3s2)c1 [LCB 03-0051] showed inhibition at 1 µM equal to > 80%

Given item CN1CCN(Cc2cccc(-c3cc4ncnc(Nc5cccc(O)c5)c4s3)c2)CC1.Cl [LCB 03-0061] , the value recorded as its inhibition at 1 µM is > 80%

inhibition at 1 µM measured on Oc1cccc(Nc2ncnc3cc(-c4ccccc4)sc23)c1 [LCB 03-0008] = > 70%

Kindly note the recorded inhibition at 1 µM for Oc1cccc(Nc2ncnc3cc(-c4cc(CN5CCCC5)co4)sc23)c1 [LCB 03-0113] , which is > 70%

// field: inhibition at 1 µM; key: CN1CCN(c2nc3ncnc(Nc4cccc(O)c4)c3s2)CC1 [LCB 03-0100] ; value = > 70%

Lookup result for Oc1cccc(Nc2ccnc3cc(-c4cccc(CN5CCCC5)c4)sc23)c1 [LCB 03-0107] ; measured inhibition at 1 µM: > 80%

Note to self: inhibition at 1 µM recorded for Cl.Oc1cccc(Nc2ncnc3cc(-c4ccc(CN5CCCC5)cc4)sc23)c1 [LCB 03-0034] was > 80%

So for CCNCc1ccc(-c2cc3ncnc(Nc4cccc(O)c4)c3s2)s1 [LCB 03-0095] , the logged inhibition at 1 µM turned out to be > 80%
